assay: Microplate spectrophotometric method (DCYA assay), fluorescence end-point; settings: RI = reactivity index; 2 equiv. electrophile, pH 10 buffer
Response key: T means DCYA 100-RI >= 100; F means DCYA 100-RI < 100.

1) CCC=CC=CC=O = F
2) O=C(O)C(=O)O = F
3) O=C(OCc1ccccc1)c1ccccc1 [Benzyl benzoate] = T
4) C=C1C(=O)O[C@@H]2/C=C(\C)CC/C=C(\C)CC[C@@H]12 [Costunolide] = F
5) Oc1cccc(O)c1 = T
6) O=C(O)c1ccccc1O = T
7) CC1=C(C=O)C(C)(C)CC=C1 = F
8) O=C1C=CC(=O)C=C1 = F

Asked: Confirm if DCYA 100-RI reported for the molecule C=CC(=O)OCC [Ethyl acrylate] is 100 or above.
Given back: F

Asked: Confirm if DCYA 100-RI reported for the molecule O=c1c(-c2ccccc2)c1-c1ccccc1 is 100 or above.
Given back: F

Asked: Confirm if DCYA 100-RI reported for the molecule CC/C=C\CCCCC=O [cis-6-Nonenal] is 100 or above.
Given back: T

Asked: Confirm if DCYA 100-RI reported for the molecule C=C(C)[C@@H]1CC=C(C)C(=O)C1 is 100 or above.
Given back: F

* * *

experiment: NMR method: depletion of electrophile signal on reaction with DCYA; conditions: conversion of test chemical at 90 min; 1 equiv. DCYA, 0.1 equiv. DBN, CDCl3
Measurement name: NMR Method conversion (%)
Record the value in %, omitting the unit from your answer.

1. CCCCC[C@@H]1CC=CC(=O)O1 = 66
2. O=CC=Cc1ccccc1 = 50

Let's switch to this compound now.
Asked: Which value of NMR Method conversion has been reported for C=C(C)[C@@H]1CC=C(C)C(=O)C1 in the records?
Given back: 16

* * *

test: NMR method: depletion of electrophile signal on reaction with DCYA
Measurement name: NMR assay reactivity / classification in words

1) OCCc1ccc(O)c(O)c1 [3-Hydroxytyrosol] = almost unreactive
2) Oc1ccc(O)cc1 [p-Hydroquinone] = almost unreactive
3) O=c1ccc2ccccc2o1 = almost unreactive

* * *

assay: Microplate spectrophotometric method (DCYA assay), fluorescence end-point; conditions: true negative
Measurement name: DCYA binary classification: TN

Some molecules with known DCYA binary classification: TN results, for comparison:
1. O=Cc1ccccc1 = 1
2. O=c1ccc2ccccc2o1 = 1
3. CC(C=O)Cc1ccc(C(C)(C)C)cc1 (stereo not drawn) = 0
4. CC/C=C\CCCCC=O [cis-6-Nonenal] = 0
5. O=C(O)C(O)C(O)C(=O)O (stereo not drawn) = 1
6. O=[N+]([O-])c1ccc(Cl)c([N+](=O)[O-])c1 = 0
7. CC(=O)C(=O)CC(C)C = 0
8. CCC=CC=CC=O = 0

Let's switch to this molecule now.
Asked: Which value of DCYA binary classification: TN has been reported for O=C(O)C(=O)O in the records?
Given back: 0

* * *

system: thiol peptide; assay: Cys-DPRA (Direct Peptide Reactivity Assay), literature data; conditions: true positive
Listing of recorded Cys-DPRA binary classification: TP by entry.
Answer with a bare number; do not write a unit.

1. O=C1C=CC(=O)C=C1 [p-Benzoquinone] = 1
2. Clc1ccccc1 [Chlorobenzene] = 0
3. O=c1ccc2ccccc2o1 [Coumarin] = 0

Asked: Which value of Cys-DPRA binary classification: TP has been reported for O=Cc1ccccc1 [Benzaldehyde] in the records?
Given back: 0

Asked: Which value of Cys-DPRA binary classification: TP has been reported for O=C(O)C(=O)O [Oxalic acid] in the records?
Given back: 0

Asked: Which value of Cys-DPRA binary classification: TP has been reported for CC(C)=CCCC(C)=CCCC(C)=CC=O [Farnesal] in the records?
Given back: 1
